# Tgt: T1, LILRA1 (human, UniProt O75019)
# T1 construct: not the cell-surface form of MOLECULES; also called LILRA1 protein of the ELISA and Octet specificity tests
# Method Notes: Octet RED96, cross-reactivity table
Measurement Label: binding result

B1-#5 (antibody, V domains shown, recombinant rabbit IgG) VH: EQSLEESGGDLVKPEGSLTLTCTASELSFSSAYYMCWVRQAPGKGLEWIGCIYSGDGDTYYANWAKGRFTISKTSSTTVTLQMTSLTDADTATYFCARALDSHYSSFDLWGPGTLVTISS VL: ELDMTQTPSSVSAAVGDTVTIKCQASQSIYRYLAWYQQKPGQRPSLLIYYGSDLASGVPSRFSGSGSGTEFTLTISDLECADAASYYCQTTYDDYHNGWAFGGGTNVEIN: binds
